Cited source for all entries: patent US20230357447A1

- study-system: Anti-CD28 scFv (VH-linker 1-VL) (biotinylated for capture on neutravidin plates)
- Sequence (scFv, as listed by the source): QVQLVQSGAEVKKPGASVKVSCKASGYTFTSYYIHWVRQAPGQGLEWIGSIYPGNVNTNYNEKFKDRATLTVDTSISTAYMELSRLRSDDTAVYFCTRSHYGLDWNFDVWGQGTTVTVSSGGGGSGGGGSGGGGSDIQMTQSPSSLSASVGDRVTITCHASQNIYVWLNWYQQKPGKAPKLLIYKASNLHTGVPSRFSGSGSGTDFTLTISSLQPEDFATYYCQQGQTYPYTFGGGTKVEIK
- experiment-description: phage ELISA, scFv captured on plate;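 note: crude clonal phage supernatants added to wells preincubated with soluble CD28 or with blocking buffer only, bound phage read out by HRP-linked anti-M13 antibody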
observation-type: Phage binding ELISA CD28 scFv signal
Answers are plain numbers.

[Q] Suppose we examine the binder MDWCPVSLWHVCFY [Phage-125] ; what Phage binding ELISA CD28 scFv signal value has been reported?
[A] 2.4

[Q] Suppose we examine the binder MSWCPRDMWFYCYA [Phage-203] ; what Phage binding ELISA CD28 scFv signal value has been reported?
[A] 2.25

# map each binder to its Phage binding ELISA CD28 scFv signal
1. MDWCPRHLWDLCFA [Phage-166]
2. MDWCPKHLWHQCFH [Phage-156]
3. MDWCPVSLWDHCFN [Phage-177]
4. MDWCPRDMWYECFN [Phage-191]
5. MDWCPRNMWAQCFA [Phage-199]
6. MDWCPRDMWDQCFD [Phage-201]

[A]
1. 0.925
2. 1.35
3. 0.616
4. 2.56
5. 2.31
6. 2.29
